Examples of molecules with documented pKi follow.
# experimental.system: Hepatitis C virus serine protease, NS3/NS4A (Hepatitis C virus, UniProt A3EZI9+D2K2A8, R155K)
# experiment: Inhibition of HCV genotype 1b BK NS3/4A protease R155K mutant expressed in Escherichia coli incubated for 30 mins by time-resolved fluorescence assay
Friendly reminder that pKi comes from taking -log10 of the concentration in mol/L.

// known answers, use as guide
- molecule: "C=C[C@@H]1C[C@]1(NC(=O)[C@@H]1C[C@@H]2CN1C(=O)[C@H](C1CCCCC1)NC(=O)N1CCC(CC1)OCCC/C=C/c1cc3ccc(OC)cc3nc1O2)C(=O)NS(=O)(=O)C1CC1"
  quantitative.result: 9.52
- molecule: "C=C[C@@H]1C[C@]1(NC(=O)[C@@H]1C[C@@H]2CN1C(=O)[C@H](C1CCCC1)NC(=O)O[C@@H]1CCC(CCCc3cc4c(cc(OCC)nc4cc3OC)O2)C1)C(=O)NS(=O)(=O)C1CC1 (mixture of isomers)"
  quantitative.result: 8.70
- molecule: "C=C[C@@H]1C[C@]1(NC(=O)[C@@H]1C[C@@H]2CN1C(=O)[C@H](C1CCCC1)NC(=O)N1CC[C@@H](C1)OCCC/C=C/c1cc3ccc(OC)cc3nc1O2)C(=O)NS(=O)(=O)C1CC1"
  quantitative.result: 10.00
- molecule: "C=C[C@@H]1C[C@]1(NC(=O)[C@@H]1C[C@@H]2CN1C(=O)[C@H](C1CCCCC1)NC(=O)N1CC[C@H](C1)OC/C=C/c1cc3c(cc(OCC)nc3cc1OC)O2)C(=O)NS(=O)(=O)C1CC1"
  quantitative.result: 9.52
- molecule: "C=C[C@@H]1C[C@]1(NC(=O)[C@@H]1C[C@@H]2CN1C(=O)[C@H](C1CCCC1)NC(=O)N1CC(OCC)(CCCCc3cc4c(cc(OCC)nc4cc3OC)O2)C1)C(=O)NS(=O)(=O)C1CC1"
  quantitative.result: 9.05

Ask: Using the record for "C=C[C@@H]1C[C@]1(NC(=O)[C@@H]1C[C@@H]2CN1C(=O)[C@H](C1CCCC1)NC(=O)OCC(C)(C)C[C@@H]1C[C@@H]1c1cc3c(cc(OCC)nc3cc1OC)O2)C(=O)NS(=O)(=O)C1CC1" , report its pKi.
Result: 9.70

Ask: # repeat for "C=C[C@@H]1C[C@]1(NC(=O)[C@@H]1C[C@@H]2CN1C(=O)[C@H](C1CCCC1)NC(=O)O[C@@H]1COC[C@H]1CCC/C=C/c1cc3ccc(OC)cc3nc1O2)C(=O)NS(=O)(=O)C1CC1"
Result: 10.00

Ask: # repeat for "C=C[C@@H]1C[C@]1(NC(=O)[C@@H]1C[C@@H]2CN1C(=O)[C@H](C1CCCC1)NC(=O)O[C@@H]1CCC[C@@]1(C)C/C=C/c1cc3c(cc(OCC)nc3cc1OC)O2)C(=O)NS(=O)(=O)C1CC1"
Result: 9.05

Ask: # repeat for "C=C[C@@H]1C[C@]1(NC(=O)[C@@H]1C[C@@H]2CN1C(=O)[C@H](C1CCCC1)NC(=O)O[C@H]1C[C@H](C/C=C/c3cc4c(cc(OCC)nc4cc3OC)O2)C1)C(=O)NS(=O)(=O)C1CC1"
Result: 8.62

Ask: # repeat for "C=C[C@@H]1C[C@]1(NC(=O)[C@@H]1C[C@@H]2CN1C(=O)[C@H](C1CCCCC1)NC(=O)N1CCC[C@@H](C1)OCCCc1cc3c(cc(OCC)nc3cc1OC)O2)C(=O)NS(=O)(=O)C1CC1"
Result: 8.92

* * *

# experiment: Inhibition of HCV subtype 3a NS3/4A protease incubated for 30 mins by time-resolved fluorescence assay
# Set-up: species or system Hepatitis C virus subtype 3a
Examples of compounds with documented Ki follow.
Number only, in nM; omit the unit.

// known answers, use as guide
- compound: "C=C[C@@H]1C[C@]1(NC(=O)[C@@H]1C[C@@H]2CN1C(=O)[C@H](C1CCCC1)NC(=O)OCC(C)(C)CCCc1cc3c(cc(OCC)nc3cc1OC)O2)C(=O)NS(=O)(=O)C1CC1"
  Ki (nM): 2.1
- compound: "C=C[C@@H]1C[C@]1(NC(=O)[C@@H]1C[C@@H]2CN1C(=O)[C@H](C1CCCC1)NC(=O)O[C@@H]1CCC[C@H]1C/C=C/c1cc3c(cc(OCC)nc3cc1OC)O2)C(=O)NS(=O)(=O)C1CC1"
  Ki (nM): 4.6
- compound: "C=C[C@@H]1C[C@]1(NC(=O)[C@@H]1C[C@@H]2CN1C(=O)[C@H](C1CCCC1)NC(=O)N1CC[C@@H](C1)OCCCCCc1cc3ccc(OC)cc3nc1O2)C(=O)NS(=O)(=O)C1CC1"
  Ki (nM): 5.9

Ask: Using the record for "C=C[C@@H]1C[C@]1(NC(=O)[C@@H]1C[C@@H]2CN1C(=O)[C@H](C1CCCC1)NC(=O)N1CC[C@@H](C1)OCCC/C=C/c1cc3ccc(OC)cc3nc1O2)C(=O)NS(=O)(=O)C1CC1" , report its Ki.
Result: 3

Ask: # repeat for C=C[C@@H]1C[C@]1(NC(=O)[C@@H]1C[C@@H]2CN1C(=O)[C@H](C1CCCC1)NC(=O)OC1CCC1C/C=C/c1cc3c(cc(OCC)nc3cc1OC)O2)C(=O)NS(=O)(=O)C1CC1 (mixture of isomers)
Result: 18

Ask: # repeat for "C=C[C@@H]1C[C@]1(NC(=O)[C@@H]1C[C@@H]2CN1C(=O)[C@H](C1CCCC1)NC(=O)N1CC(C1)OCCC/C=C/c1cc3ccc(OC)cc3nc1O2)C(=O)NS(=O)(=O)C1CC1"
Result: 38

Ask: # repeat for "C=C[C@@H]1C[C@]1(NC(=O)[C@@H]1C[C@@H]2CN1C(=O)[C@H](C1CCCCC1)NC(=O)N1CCO[C@H](CCCCc3cc4c(cc(OCC)nc4cc3OC)O2)C1)C(=O)NS(=O)(=O)C1CC1"
Result: 5.2

Ask: # repeat for "C=C[C@@H]1C[C@]1(NC(=O)[C@@H]1C[C@@H]2CN1C(=O)[C@H](C1CCCCC1)NC(=O)O[C@@H]1CCC[C@H]1C/C=C/c1cc3c(cc(OCC)nc3cc1OC)O2)C(=O)NS(=O)(=O)C1CC1"
Result: 3.1

Ask: # repeat for "C=C[C@@H]1C[C@]1(NC(=O)[C@@H]1C[C@@H]2CN1C(=O)[C@H](C1CCCCC1)NC(=O)O[C@@H]1COC[C@H]1C/C=C/c1cc3c(cc(OCC)nc3cc1OC)O2)C(=O)NS(=O)(=O)C1CC1"
Result: 1.9

Ask: # repeat for "C=C[C@@H]1C[C@]1(NC(=O)[C@@H]1C[C@@H]2CN1C(=O)[C@H](C1CCCCC1)NC(=O)N1CC[C@H](C1)OC/C=C/c1cc3c(cc(OCC)nc3cc1OC)O2)C(=O)NS(=O)(=O)C1CC1"
Result: 3.6

* * *

Examples of compounds with documented pKi follow.
# experimental.system: Genome polyprotein (Hepacivirus C, UniProt K7XJL6, A156V)
# experiment: Inhibition of HCV genotype 1b BK NS3/4A protease A156V mutant expressed in Escherichia coli incubated for 30 mins by time-resolved fluorescence assay
Friendly reminder that pKi comes from taking -log10 of the concentration in mol/L.

// known answers, use as guide
- compound: "C=C[C@@H]1C[C@]1(NC(=O)[C@@H]1C[C@@H]2CN1C(=O)[C@H](C1CCCC1)NC(=O)N(C)[C@@H]1CCC[C@H]1C/C=C/c1cc3c(cc(OCC)nc3cc1OC)O2)C(=O)NS(=O)(=O)C1CC1"
  measurement.type: "pKi"
  quantitative.result: 7.74
- compound: "C=C[C@@H]1C[C@]1(NC(=O)[C@@H]1C[C@@H]2CN1C(=O)[C@H](C1CCCC1)NC(=O)O[C@@H]1CCC(CCCc3cc4c(cc(OCC)nc4cc3OC)O2)C1)C(=O)NS(=O)(=O)C1CC1 (mixture of isomers)"
  measurement.type: "pKi"
  quantitative.result: 7.34
- compound: "C=C[C@@H]1C[C@]1(NC(=O)[C@@H]1C[C@@H]2CN1C(=O)[C@H](C1CCCC1)NC(=O)O[C@@H]1COC[C@H]1CCC/C=C/c1cc3ccc(OC)cc3nc1O2)C(=O)NS(=O)(=O)C1CC1"
  measurement.type: "pKi"
  quantitative.result: 7.19

Now for the compound whose pKi we want.
Ask: Using the record for "C=C[C@@H]1C[C@]1(NC(=O)[C@@H]1C[C@@H]2CN1C(=O)[C@H](C1CCCCC1)NC(=O)O[C@@H]1CCCC[C@H]1C/C=C/c1cc3c(cc(OCC)nc3cc1OC)O2)C(=O)NS(=O)(=O)C1CC1" , report its pKi.
Result: 6.25

* * *

# experiment: Drug level in Sprague-Dawley rat liver at 5 mg/kg, po measured 4 hrs post dose by LC/MS method
# Assay type: ADME, organism-based
# Design: dose 5 mg/kg, route oral
# run.conditions: read-out: Drug uptake
Examples of compounds with documented log10 of concentration at 4 h follow.
Kindly note that the scale is log10 and the underlying concentration at 4 h is in µM.

// known answers, use as guide
- sample.smiles: "C=C[C@@H]1C[C@]1(NC(=O)[C@@H]1C[C@@H]2CN1C(=O)[C@H](C1CCCCC1)NC(=O)N1CCC(CC1)OCCC/C=C/c1cc3c(cc(OCC)nc3cc1OC)O2)C(=O)NS(=O)(=O)C1CC1"
  quantitative.result: 1.04
- sample.smiles: "C=C[C@@H]1C[C@]1(NC(=O)[C@@H]1C[C@@H]2CN1C(=O)[C@H](C1CCCCC1)NC(=O)N1CC[C@@H](C1)OC/C=C/c1cc3c(cc(OCC)nc3cc1OC)O2)C(=O)NS(=O)(=O)C1CC1"
  quantitative.result: 0.68
- sample.smiles: "C=C[C@@H]1C[C@]1(NC(=O)[C@@H]1C[C@@H]2CN1C(=O)[C@H](C1CCCC1)NC(=O)O[C@@H]1CCC[C@H]1C/C=C/c1cc3c(cc(OCC)nc3cc1OC)O2)C(=O)NS(=O)(=O)C1CC1"
  quantitative.result: 1.01
- sample.smiles: "C=C[C@@H]1C[C@]1(NC(=O)[C@@H]1C[C@@H]2CN1C(=O)[C@H](C1CCCCC1)NC(=O)O[C@@H]1COC[C@H]1C/C=C/c1cc3c(cc(OCC)nc3cc1OC)O2)C(=O)NS(=O)(=O)C1CC1"
  quantitative.result: -0.52

Now for the compound whose log10 of concentration at 4 h we want.
Ask: Using the record for "C=C[C@@H]1C[C@]1(NC(=O)[C@@H]1C[C@@H]2CN1C(=O)[C@H](C1CCCC1)NC(=O)N1CC[C@@H](C1)OCCC/C=C/c1cc3ccc(OC)cc3nc1O2)C(=O)NS(=O)(=O)C1CC1" , report its log10 of concentration at 4 h.
Result: 0.93
